These entries and their values trace back to patent US20010034454A1.

- Test system: DU-145
- METHOD SUMMARY: Human cancer cell line studies, DU-145
- Format: cell-based
- RUN CONDITIONS: Homo sapiens; Prostate DU-145; read-out: GI50
In this scheme, each record receives a class according to its GI50; the ranges are low bracket = under 0.3 µg/mL, middle bracket = from 0.3 µg/mL up to 3 µg/mL, high bracket = 3 µg/mL and over

CCOc1ccc(C(=O)c2c(-c3ccc(OC)cc3)sc3cc(OC)ccc23)cc1 [Compound 6A]: high bracket
COc1ccc(-c2sc3ccccc3c2C(=O)c2cc(OC)c(OC)c(OC)c2)cc1 [Compound 16A]: high bracket
COc1ccc(-c2sc3cc(OC)ccc3c2C(=O)c2cc(F)c(F)c(F)c2)cc1 [Compound 14A]: high bracket
COc1ccc(-c2sc3cc(OC)ccc3c2C(=O)c2ccc(OC)c(OC)c2)cc1 [Compound 4A]: high bracket
COc1cc(/C=C\c2cc(OC)c(OC)c(OC)c2)ccc1N=[N+]=[N-] [Compound 30E]: middle bracket
COc1ccc(/C=C\c2cc(OC)c(OC)c(OC)c2)cc1N=[N+]=[N-] [Compound 34E]: low bracket
COc1ccc(C(=O)c2c(-c3ccc(OC)cc3)sc3cc(OC)ccc23)cc1 [Compound 5A]: high bracket
COc1ccc(-c2sc3cc(OC)ccc3c2C(=O)c2c(F)c(F)c(F)c(F)c2F)cc1 [Compound 15A]: high bracket
COc1ccc2c(c1)CCC=C2C(=O)c1cc(OC)c(OC)c(OC)c1 [Compound 26D]: low bracket
COc1ccc(/C=C\c2cc(OC)c(OC)c(OC)c2)cc1N [Compound 33E]: low bracket
COc1ccc(-c2cc3c(OC)ccc(C(=O)c4cc(OC)c(OC)c(OC)c4)c3s2)cc1 [Compound 13A]: high bracket
CCOc1c(OC)cc(C(=O)c2c(-c3ccc(OC)cc3)sc3cc(OC)ccc23)cc1OC [Compound 10A]: middle bracket
CCOc1cc(C(=O)c2c(-c3ccc(OC)cc3)sc3cc(OC)ccc23)cc(OCC)c1OCC [Compound 7A]: high bracket
COc1ccc(-c2sc3cc(OC)ccc3c2Oc2cc(OC)c(OC)c(OC)c2)cc1 [Compound 23B]: middle bracket
COc1ccc(-c2sc3cc(OC)ccc3c2C(=O)Cc2ccccc2)cc1 [Compound 20A]: high bracket
COc1ccc2c(c1)CCC=C2c1cc(OC)c(OC)c(OC)c1CO [Compound 25D]: middle bracket
COc1ccc(-c2sc3cc(OC)ccc3c2C(=O)c2ccc(N(C)C)cc2)cc1 [Compound 11A]: high bracket
